# MEASURED ON: PI3Kδ (recombinant GST-tagged PIK3CD co-expressed with PIK3R1, p85α) (Homo sapiens, UniProt O00329)
# Construct: The protein is full length and co-expressed with untagged PIK3R1; GST
# Sequence (O00329 whole entry): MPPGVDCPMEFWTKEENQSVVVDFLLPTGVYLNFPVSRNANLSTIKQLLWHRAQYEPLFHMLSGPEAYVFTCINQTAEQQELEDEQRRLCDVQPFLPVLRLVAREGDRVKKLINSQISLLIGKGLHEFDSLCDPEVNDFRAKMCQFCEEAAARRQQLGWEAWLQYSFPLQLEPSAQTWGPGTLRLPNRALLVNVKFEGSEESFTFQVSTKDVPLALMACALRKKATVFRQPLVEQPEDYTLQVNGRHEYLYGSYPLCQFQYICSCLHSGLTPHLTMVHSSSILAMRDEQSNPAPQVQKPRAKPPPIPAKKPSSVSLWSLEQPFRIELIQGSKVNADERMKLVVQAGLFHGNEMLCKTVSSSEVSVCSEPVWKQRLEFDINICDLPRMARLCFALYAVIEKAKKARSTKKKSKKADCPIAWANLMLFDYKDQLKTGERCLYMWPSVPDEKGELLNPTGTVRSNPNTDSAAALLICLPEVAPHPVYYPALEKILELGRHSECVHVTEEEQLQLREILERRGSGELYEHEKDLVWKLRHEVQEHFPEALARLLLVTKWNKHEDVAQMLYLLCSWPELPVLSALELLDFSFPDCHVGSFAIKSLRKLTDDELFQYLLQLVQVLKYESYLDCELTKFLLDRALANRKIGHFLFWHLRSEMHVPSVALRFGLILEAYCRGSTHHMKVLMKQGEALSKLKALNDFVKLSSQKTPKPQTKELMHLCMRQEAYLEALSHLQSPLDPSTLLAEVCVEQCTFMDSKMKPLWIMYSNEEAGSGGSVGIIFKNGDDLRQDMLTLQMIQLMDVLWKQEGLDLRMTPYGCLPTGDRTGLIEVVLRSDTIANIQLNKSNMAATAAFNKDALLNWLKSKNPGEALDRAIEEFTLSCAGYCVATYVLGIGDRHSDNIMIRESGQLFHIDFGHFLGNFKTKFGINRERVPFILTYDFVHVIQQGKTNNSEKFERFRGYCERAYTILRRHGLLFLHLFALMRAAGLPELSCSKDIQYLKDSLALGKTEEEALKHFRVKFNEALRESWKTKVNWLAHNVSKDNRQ
# Sequence (P27986 whole entry partner): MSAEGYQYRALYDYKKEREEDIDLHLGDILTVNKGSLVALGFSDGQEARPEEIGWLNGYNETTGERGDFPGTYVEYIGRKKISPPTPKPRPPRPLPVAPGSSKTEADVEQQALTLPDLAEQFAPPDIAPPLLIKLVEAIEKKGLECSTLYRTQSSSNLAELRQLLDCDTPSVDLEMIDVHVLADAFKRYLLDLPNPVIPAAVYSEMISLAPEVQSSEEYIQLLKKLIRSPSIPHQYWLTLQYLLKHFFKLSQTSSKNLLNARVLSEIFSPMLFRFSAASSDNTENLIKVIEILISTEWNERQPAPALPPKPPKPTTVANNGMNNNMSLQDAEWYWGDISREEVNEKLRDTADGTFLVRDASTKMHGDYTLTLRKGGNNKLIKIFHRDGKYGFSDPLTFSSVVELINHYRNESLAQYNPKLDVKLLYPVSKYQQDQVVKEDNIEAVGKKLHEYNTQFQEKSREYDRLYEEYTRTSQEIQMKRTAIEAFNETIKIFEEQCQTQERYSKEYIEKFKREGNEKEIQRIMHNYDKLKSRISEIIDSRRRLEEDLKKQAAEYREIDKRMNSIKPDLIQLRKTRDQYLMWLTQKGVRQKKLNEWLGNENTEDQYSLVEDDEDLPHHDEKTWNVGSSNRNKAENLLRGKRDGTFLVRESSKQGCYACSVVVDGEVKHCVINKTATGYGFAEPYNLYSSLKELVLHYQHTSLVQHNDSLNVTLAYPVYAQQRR
# EXPERIMENTAL PROTOCOL: PI3Kδ inhibition, modified PIK3CD Adapta TR-FRET kinase assay
# MEASUREMENT CONTEXT: 2 μM ATP, 50 μM PIP2, 1 hour at room temperature, pIC50 = -log(IC50 in M)
# Description: The activity of compounds as PI3Kδ inhibitors may be determined by a variety of methods, including in vitro and in vivo methods. The following in vitro assay measures a test compound's ability to inhibit PI3Kδ-mediated phosphorylation of PIP2 and ATP. […] The assay uses black Greiner® 384-well plates (784076). […] After allowing the solutions to equilibrate for 30±10 minutes, a PHERAstar plate reader is used to excite the Eu donor (at 337 nm) and to detect emission from the Alexa Fluor® 647 at 665 nm. […]
pIC50: −log10 of the molar value.
READOUT: pIC50

COMPOUND	pIC50
CC(Nc1nc(N)nc(N)c1Cl)c1nc2ccn(C)c2cc1N1CC(F)(F)C1 (stereo not drawn) [Example 38]	6.80
C[C@H](Nc1nc(N)nc(N)c1Cl)c1nc2ccn(C)c2cc1-c1ccnn1C [Example 33]	7.50
CC(Nc1nc(N)nc(N)c1Cl)c1nc2ccn(C)c2cc1N1CC(O)C1 (stereo not drawn) [Example 40]	7.10

A = C[C@H](Nc1nc(N)nc2[nH]cnc12)c1nc2ccn(C)c2cc1-c1ccnn1C1CC1 [Example 36]
B = C[C@H](Nc1nc(N)nc(N)c1C#N)c1nc2ccn(C)c2cc1N1CC(F)(F)C1 [Example 44]
Would you kindly point out which of A and B has the smaller pIC50 figure? Write down the label of the entry you select. A
(A: 8.00, B: 8.70)
